Origin of the recorded values: patent US20040146519A1

# experimentalSystem: HLA-B*5401 (human)
# measurementProtocol: inhibition of 125I probe peptide, purified HLA
pIC50 values by entry
In plain terms, pIC50 is the concentration in mol/L turned into minus its base-10 logarithm.

Answered examples (4):
[
  {
    "binder": "FPGVNLSL [CEA.428.F1]",
    "pIC50": 6.94
  },
  {
    "binder": "FPQQHTQVI [CEA.632.F1I9]",
    "pIC50": 8.77
  },
  {
    "binder": "FPQQHTQVLI [CEA.632.F1I10]",
    "pIC50": 6.56
  },
  {
    "binder": "FPDAPTISPI [CEA.236.F1I10]",
    "pIC50": 6.56
  }
]

Now examine the next entry.
**Q:** Fill in reported pIC50 for this entry: FPDAPTISPL [CEA.236.F1]
**A:** 6.15
